test system: KM-20L2; test: NCI tumour cell line growth inhibition, 48 h
Calls of active or inactive are those of the source. Rule as the data show it: active = GI50 up to about 1.1 µM and inactive = higher.
Labels: y = active, n = inactive

- COMPOUND: "O=C1c2ccccc2C(=O)N1C/C=C/CO"
  ASSIGNED CLASS: "n"
- COMPOUND: "COc1cc2cnc3c4ccccc4ccc3c2cc1OC"
  ASSIGNED CLASS: "n"
- COMPOUND: "CCN(CC)CCCNc1ccc2nnn3c4ccc(O)cc4c(=O)c1c23"
  ASSIGNED CLASS: "n"
- COMPOUND: "COC(=O)CC1NC(=O)C1C(C)(OC)OC (stereo not drawn)"
  ASSIGNED CLASS: "n"
- COMPOUND: "CC(=O)NC(CCCCN(Cc1ccccc1)C(=O)NCCCl)C(=O)NCc1ccccc1 (stereo not drawn)"
  ASSIGNED CLASS: "n"
- COMPOUND: "CC(C)(C)C(=O)ON1N=NC2C3CC(OCc4ccccc4)(OCc4ccccc4)C(O3)C21 (stereo not drawn)"
  ASSIGNED CLASS: "n"
- COMPOUND: "O=C(NC(=O)c1cn(CCN2CCN(C(=O)NCCCCCCNC(=O)N3CCN(CCn4cc(C(=O)NC(=O)OCc5ccccc5)c(=O)[nH]c4=O)CC3)CC2)c(=O)[nH]c1=O)OCc1ccccc1"
  ASSIGNED CLASS: "n"
- COMPOUND: "CN/N=C(\\C(=O)Nc1ccc(C)c(C)c1)C(C(=O)OC)c1nc2ccc([N+](=O)[O-])cc2nc1O (stereo not drawn)"
  ASSIGNED CLASS: "n"
- COMPOUND: "CCc1cc(Cc2cc(Cl)c(NC(=O)C(=O)C3NC(=O)NC3=O)c(CC)c2)cc(Cl)c1NC(=O)C(=O)C1NC(=O)NC1=O (stereo not drawn)"
  ASSIGNED CLASS: "n"
- COMPOUND: "C/C(=C1/CCC/C(=C(/C)c2ccccc2)C1=O)c1ccccc1"
  ASSIGNED CLASS: "n"
- COMPOUND: "CC(=O)CC(=O)/C=C/c1cccs1"
  ASSIGNED CLASS: "n"
- COMPOUND: "CCS[C@H]1NC(=O)C1[C@H](C)O[Si](C)(C)C(C)(C)C (stereo partly drawn)"
  ASSIGNED CLASS: "n"
- COMPOUND: "O=C(CC1(O)C(=O)Nc2ccccc21)c1ccc(O)cc1O (stereo not drawn)"
  ASSIGNED CLASS: "n"
- COMPOUND: "C/C=C1/C(=O)O[C@]23C=C[C@@H]4C(C(=O)OC)=CO[C@H](O[C@@H]12)[C@@H]43 [PLUMERICIN]"
  ASSIGNED CLASS: "n"
- COMPOUND: "CN(C)CCNC(=O)c1cccc2nc3c4ccccc4c4ccccc4c3nc12"
  ASSIGNED CLASS: "n"
- COMPOUND: "NCCCSCC(=O)O"
  ASSIGNED CLASS: "n"
- COMPOUND: "CCOC(=O)C[C@@H](C)[C@]1(C(=O)OC)CCCC1=O"
  ASSIGNED CLASS: "n"
- COMPOUND: "CSc1nc2c(ncn2C2OCC(O)C(O)C2O)c(=O)[nH]1 (stereo not drawn)"
  ASSIGNED CLASS: "n"
- COMPOUND: "C1CCC(N=C2N(C3CCCCC3)C(=NC3CCCCC3)N2C2CCCCC2)CC1"
  ASSIGNED CLASS: "n"
- COMPOUND: "COC1OC2COC(c3ccccc3)OC2C(O)C1Br (stereo not drawn)"
  ASSIGNED CLASS: "n"
- COMPOUND: "CN1N=C2c3ccccc3CC[C@H]2C1c1cccc(O)c1 (stereo partly drawn)"
  ASSIGNED CLASS: "n"
- COMPOUND: "Cc1ccc2[nH]c3c(C)c4ccncc4c(C)c3c2c1"
  ASSIGNED CLASS: "y"
- COMPOUND: "O=S(=O)(O)C(F)(F)C(F)(F)C(F)(F)C(F)(F)F"
  ASSIGNED CLASS: "n"
- COMPOUND: "CCOC(=O)C1=C(Nc2ccccc2)SCC1=O"
  ASSIGNED CLASS: "n"
- COMPOUND: "Cc1ccc(S(=O)(=O)OCCn2cnc3nc(NC(=O)c4ccccc4)[nH]c(=O)c32)cc1"
  ASSIGNED CLASS: "n"
- COMPOUND: "CC(C)(C)OC(=O)N1CC(C)(C)N2C(=O)C3(CCCO3)C12 (stereo not drawn)"
  ASSIGNED CLASS: "n"
- COMPOUND: "COc1ccc(/C(Cl)=C(\\c2ccc(OCCN(C)C)cc2)c2ccc(OC(=O)C(C)(C)C)cc2)cc1"
  ASSIGNED CLASS: "n"
- COMPOUND: "O=Cc1ccccc1OCCOc1cc(OCCOc2ccccc2C=O)c(OCCOc2ccccc2C=O)cc1OCCOc1ccccc1C=O"
  ASSIGNED CLASS: "n"

====

system: RXF 393; assay: NCI tumour cell line growth inhibition, 48 h
Active and inactive are the calls of the source. Cut-off read from the data, not from the text of the source: active = GI50 up to about 1.1 µM and inactive = higher.
Possible outcomes: Y = active, N = inactive

- COMPOUND: "O=C(CC1(O)C(=O)Nc2ccccc21)c1ccc(O)cc1O (stereo unspecified)"
  ASSIGNED CLASS: "N"
- COMPOUND: "Cn1c(=O)c2nc(CS(=O)(=O)Cc3nc4c(=O)n(C)c(=O)n(C)c4[nH]3)[nH]c2n(C)c1=O"
  ASSIGNED CLASS: "N"
- COMPOUND: "CCCCN(c1ccccc1)c1ncnc2c1cnn2C"
  ASSIGNED CLASS: "N"
- COMPOUND: "O=C(/C=C/c1cc(F)ccc1F)OCCc1ccccc1"
  ASSIGNED CLASS: "N"
- COMPOUND: "COc1ccc2c(c1)c1c3c(ccc4ncn2c43)N(CCN(C)C)CCN=1"
  ASSIGNED CLASS: "Y"
- COMPOUND: "CC(C)=CCC/C(C)=C/CC/C(C)=C/CC/C(C)=C/CC/C(C)=C\\CC/C(C)=C/CC/C(C)=C/CC/C(C)=C/Cc1cc(O)ccc1O"
  ASSIGNED CLASS: "Y"
- COMPOUND: "O=C1OCCC12CN(Cc1ccccc1)N=N2 (stereo unspecified)"
  ASSIGNED CLASS: "N"
- COMPOUND: "O=c1c2c(nc3[nH]ccn13)CCCC2"
  ASSIGNED CLASS: "N"
- COMPOUND: "Cc1cc(C)c(NC(=S)NC(=O)c2ccccc2)cc1C"
  ASSIGNED CLASS: "N"
- COMPOUND: "O=C(CCl)NNC1=Nc2ccc(Cl)cc2SC1"
  ASSIGNED CLASS: "N"
- COMPOUND: "COc1cc(/C=C2\\[C@H]3c4c(c(OC)c(C)c(OC)c4OC)CC(C(=O)N2Cc2ccccc2)N3C)c(OC)c(C)c1OC"
  ASSIGNED CLASS: "N"
- COMPOUND: "C1CCC(N=C2N(C3CCCCC3)C(=NC3CCCCC3)N2C2CCCCC2)CC1"
  ASSIGNED CLASS: "N"
- COMPOUND: "COC(=O)[C@@H]1C=CCN1S(=O)(=O)c1ccc(C)cc1"
  ASSIGNED CLASS: "N"
- COMPOUND: "CCN(CC)CCCNc1nc2ccccc2[n+]([O-])n1"
  ASSIGNED CLASS: "N"
- COMPOUND: "CCOC(=O)NC(=O)c1cn(CCCCCCCCCCC(=O)N2CCN(CCn3cc(C(=O)NC(=O)OCC)c(=O)[nH]c3=O)CC2)c(=O)[nH]c1=O"
  ASSIGNED CLASS: "N"
- COMPOUND: "COc1cc(/C=C/c2csnn2)cc(OC)c1OC"
  ASSIGNED CLASS: "N"
- COMPOUND: "Cc1ccc(Nc2nc(O)c3[nH]cnc3n2)cc1CO"
  ASSIGNED CLASS: "N"
- COMPOUND: "C/C(=C\\COc1cc(O)c2c(c1)C(=O)c1cc(C)cc(O)c1C2=O)CCC1OC1(C)C (stereo unspecified)"
  ASSIGNED CLASS: "N"
- COMPOUND: "O=C1NC(Cc2c[nH]c3ccccc23)C(=O)N2C(C3CCCCC3)c3[nH]c4ccccc4c3C[C@@H]12 (stereo partly specified)"
  ASSIGNED CLASS: "N"
- COMPOUND: "CC(=O)C(CN1CCOCC1)C(c1ccccc1)c1c(O)c2ccccc2oc1=O (stereo unspecified)"
  ASSIGNED CLASS: "N"
- COMPOUND: "O=[N+]([O-])c1ccc(CSC2=C(c3ccc(Cl)cc3)S/C(=C3\\SC(SCc4ccc([N+](=O)[O-])cc4)=C(c4ccc(Cl)cc4)S3)S2)cc1"
  ASSIGNED CLASS: "N"

====

tested on: OVCAR-4; assay: NCI tumour cell line growth inhibition, 48 h
Active and inactive are the calls of the source. Cut-off read from the data, not from the text of the source: active = GI50 up to about 1.1 µM and inactive = higher.
Listing of recorded GI50 by entry.
ENDPOINT: GI50

- MOLECULE: "CC(C)C(=S)N(C)O"
  RESULT: "9.89 µM (inactive)"
- MOLECULE: "COC(=O)[C@@H]1C(=O)O[C@@H](c2ccc(OC)c(OC)c2OC)[C@@H]1C(=O)OC.COC(=O)[C@H]1C(=O)O[C@@H](c2ccc(OC)c(OC)c2OC)[C@@H]1C(=O)OC"
  RESULT: "> 100 µM (inactive)"
- MOLECULE: "C/C(=C1/CCC/C(=C(/C)c2ccccc2)C1=O)c1ccccc1"
  RESULT: "46.3 µM (inactive)"
- MOLECULE: "CCN(CC)CCCNc1nc2ccccc2[n+]([O-])n1"
  RESULT: "> 100 µM (inactive)"
- MOLECULE: "Cc1ccc(/C=N/n2c(-c3ccc(C)cc3)n[nH]c2=O)cc1"
  RESULT: "40 µM (inactive)"
- MOLECULE: "CCOC(=O)C1(C(=O)OCC)CC=C(C)CC12C(=O)Nc1ccccc12 (centres undefined)"
  RESULT: "> 100 µM (inactive)"
- MOLECULE: "O=C(NCCCN(CCCCN(CCCNC(=O)c1cc(S(=O)(=O)O)cc(O)c1O)C(=O)c1cc(S(=O)(=O)O)cc(O)c1O)C(=O)c1cc(S(=O)(=O)O)cc(O)c1O)c1cc(S(=O)(=O)O)cc(O)c1O"
  RESULT: "> 100 µM (inactive)"
- MOLECULE: "CC(=O)O/N=C/c1ncccc1OC(C)=O"
  RESULT: "> 100 µM (inactive)"
- MOLECULE: "O=c1oc2cccnc2n1CCCCN1CCN(c2ccccc2)CC1"
  RESULT: "> 100 µM (inactive)"
